- assay-overview: Cmax in dog at 20 mg/kg, po
- Type: ADME, organism-based, Canis lupus familiaris
- Parameters: dose 20 mg/kg, route oral
- condition-summary: in vivo
measure: Cmax (ng/mL)
Quick reminder: number only, in ng/mL, skip the unit.

Exercise: # input molecule: "NS(=O)(=O)c1ccc(NC(=O)CSc2nnc(Br)n2-c2ccc(C3CC3)c3ccccc23)c(Cl)c1" ; wanted: its Cmax
Key: 1980

* * *

- Test system: Human immunodeficiency virus 1
- assay-overview: Antiviral activity against HIV1 isolate with RT K103N-G190A mutation
- Format: functional, organism-based
measure: EC50 (nM)
Report only the number, with the unit nM understood.

Exercise: Give its EC50 value. Item: "NS(=O)(=O)c1ccc(NC(=O)CSc2nnc(Br)n2-c2ccc(C3CC3)c3ccccc23)c(Cl)c1"
Key: 0.32
